Biological target: rat nNOS (Rattus norvegicus)
Construct: made in house; host or cells: E. coli
Experiment: NOS enzyme assay (hemoglobin capture), nNOS
Assay type: biochemical
Conditions: ratio of Ki (eNOS) to Ki (nNOS); Tables 1-3
Yes means recorded n/e is 100 or above; No means it is below 100.

Solved cases (3 shown):
>  <compound.smiles>
Cc1cc(N)nc(CCc2ccc(CCc3cc(C)cc(N)n3)cc2)c1

>  <class>
No

$$$$
>  <compound.smiles>
Cc1cc(N)nc(CCc2cccc(CCc3cc(C)nc(N)c3)c2)c1

>  <class>
Yes

$$$$
>  <compound.smiles>
Cc1cc(N)nc(CCc2cncc(CCc3cc(C)nc(N)c3)c2)c1

>  <class>
Yes

$$$$

Input line: Hello, I need to know if Cc1cc(N)nc(CCc2ccc3cc(CCc4cc(C)cc(N)n4)ccc3c2)c1 has measured n/e not below 100. Thanks!
Output line: No

Input line: Does n/e meet or surpass 100 for Cc1cc(N)nc(CCc2ccc3ccc(CCc4cc(C)cc(N)n4)cc3c2)c1 ?
Output line: No

====

Consider the following molecules and their measured Selectivity n/e readings.
Molecular target: rat nNOS (Rattus norvegicus, UniProt P29476)
Construct: made in house; host or cells: E. coli
Assay: NOS enzyme assay (hemoglobin capture), nNOS
Assay type: biochemical
Conditions: Table 4
A bare number is all that is needed in reply.

>  <compound.smiles>
Cc1cc(N)nc(CCc2cc(CCc3cc(C)cc(N)n3)cc(N3CCNCC3)c2)c1

>  <Selectivity n/e>
30

$$$$

Selectivity n/e for Cc1cc(N)nc(CCc2cc(CN)cc(CCc3cc(C)cc(N)n3)c2)c1 is 221

Selectivity n/e reading for Cc1cc(N)nc(CCc2cc(CCc3cc(C)cc(N)n3)cc(N3CCN(C)CC3)c2)c1 : 17

Selectivity n/e reading for Cc1cc(N)nc(CCc2cc(CCCN)cc(CCc3cc(C)cc(N)n3)c2)c1 : 22

Selectivity n/e in this record for Cc1cc(N)nc(CCc2ccc(CCCN)c(CCc3cc(C)cc(N)n3)c2)c1 : 303

GET /value?item= Cc1cc(N)nc(CCc2cc(C#N)cc(CCc3cc(C)cc(N)n3)c2)c1 &field=Selectivity n/e returns 472

====

Target: rat nNOS (Rattus norvegicus)
Construct: made in house; host or cells: E. coli
Test: NOS enzyme assay (hemoglobin capture), nNOS
Assay type: biochemical
Conditions: rat nNOS; Ki calculated from directly measured IC50 values; read-out: Ki nNOS
Decision: Ki beneath 100 nM gives True; Ki meeting or exceeding 100 nM gives False.

>  <compound.smiles>
Cc1cc(C)nc(NCc2ccc3cc(CNc4cc(C)cc(C)n4)ccc3c2)c1

>  <class>
False

$$$$
>  <compound.smiles>
Cc1cc(N)nc(CCc2ccc3cc(CCc4cc(C)cc(N)n4)ccc3c2)c1

>  <class>
False

$$$$
>  <compound.smiles>
Cc1cc(N)nc(CCc2ccc3ccc(CCc4cc(C)nc(N)c4)cc3c2)c1

>  <class>
False

$$$$
>  <compound.smiles>
Cc1cc(CCc2cccc(CCc3cc(C)nc(N)c3)c2)cc(N)n1

>  <class>
False

$$$$
>  <compound.smiles>
Cc1cc(N)nc(CCc2cccc(CCc3cc(C)nc(N)c3)c2)c1

>  <class>
True

$$$$

Input line: # TODO verify Ki < 100 nM strictly for this molecule: Cc1cc(N)nc(CCc2ccc(CCc3cc(C)nc(N)c3)cc2)c1
Output line: False
